Experiment: Plasma protein binding, ultrafiltration
Type: in vitro ADME
Conditions: plasma; 30 minutes, duplicate determinations; read-out: binding to plasma proteins (converted)
Protocol: Studies of protein binding were carried out in plasma using an ultrafiltration method described at J.Nucl.Med. 22, 258-263, 1981.
Reported endpoint: fraction unbound at 0.5 h
Enter a number only.

fraction unbound at 0.5 h lookup needed for O=C(O)CNC(=O)c1ccccc1[131I] [OIH, I-131 o-iodohippurate] , thanks.
0.44
